# test-protocol: P-glycoprotein substrates identified in KB-8-5-11 adenocarcinoma cell line, qHTS therapeutic library screen (AID 1346987); also: nearly all actives have a fitted effect of over 65% in size
# condition-context: KB-8-5-11 (P-gp overexpressing) viability, CellTiter-Glo, 72 h; series mostly up to 44.5 µM
# Procedure: The ATP-binding cassette transporters P-glycoprotein (P-gp) is known to limit brain penetration of many chemotherapy drugs. […] All cell lines were plated into 1536-well plates at 500 cells/well in 5 uL media. […] CellTiter-Glo reagent (Promega) was dispensed into the wells, incubated for 5 min and luminescence was read on a ViewLux instrument (Perkin-Elmer). […]
Records with an inconclusive call do not appear. The source made the active and inactive calls. Calls follow the shape of the dose curve; as a rule, active = well fitted inhibition curve with a large enough effect; inconclusive = small, poorly fitted or top-dose-only effect; inactive = flat fitted curve, though single readings scatter.
# valid calls are 1.0 (active), 0.0 (inactive); nothing else

stdin: Recorded test outcome, item COc1ccccc1NC(=O)OCC1CCN(C(=O)OC(C)(C)C)CC1
stdout: 0.0

stdin: Give the logged outcome of this assay for the following compound: CC(=O)O[C@@H]1CC(C)=C2[C@H]1[C@H](C)CC[C@H]2/C=C(\C)C(=O)O
stdout: 0.0

stdin: What call does the record list for CC1(O)CCCC2(C)C1CCC13CC(CO)C(CCC12)C3 (stereo unspecified) ?
stdout: 0.0

stdin: What call does the record list for CC(=O)O[C@H]1C[C@@]2(C)[C@@H](CC[C@H]3[C@@]4(C)C=CC(=O)[C@@H](C)[C@@H]4[C@H](O)C(=O)[C@@]32C)/C1=C(/CCC=C(C)C)C(=O)O ?
stdout: 0.0

stdin: What classification did C[C@@H]1C[C@@H]2O[C@H]2/C=C\C=C\C(=O)Cc2c(Cl)c(O)cc(O)c2C(=O)O1 end up with in this test?
stdout: 1.0

stdin: Write down the call the test reported for this compound. Item: C/C=C/C=C/C(O)=C1\C(=O)[C@]2(C)C3C(C(=O)CC/C=C/C)=C(O)C4(C)C1[C@]1(C)O[C@@]4(O)[C@@]3(C)O[C@@]12O
stdout: 0.0

stdin: I'd appreciate the recorded outcome for Cc1c(CN2CCN(C(=O)C(C)O)CC2)sc2c(N3CCOCC3)nc(-c3cnc(N)nc3)nc12 (stereo unspecified) from this test.
stdout: 1.0

stdin: # outcome recorded in this test, key = CC(=O)OC1CC2C3(C)CCC(OC(=O)CC(=O)O)C(C)(C)C3CCC2(C)C2(C)CCC(C3(C)CCC(=O)O3)C12 (stereo unspecified)
stdout: 0.0

stdin: Given CC[C@H](CO)Nc1nc(NCc2ccc(-c3ccccn3)cc2)c2ncn(C(C)C)c2n1 , state the outcome it received in this test.
stdout: 1.0

stdin: Can you look up the reported call for Cc1ccc(Cc2c(C)nc3nc(SCC(=O)NCCN4CCNCC4)nn3c2C)cc1 for me?
stdout: 0.0

stdin: Look up the recorded call for Cc1cc(Cl)ccc1COc1ccnn1-c1cc(C(=O)O)ccn1 in this test.
stdout: 0.0

stdin: Test call for this compound, please: CC(C)CC(=O)O[C@@H]1OC=C(CO[C@@H]2O[C@H](CO)[C@@H](O)[C@H](O)[C@H]2O)[C@H]2[C@@H]3O[C@H]3[C@@](O)(CO)[C@@H]12
stdout: 0.0

stdin: Recorded test call requested for C#CCN(Cc1cc2c(=O)n(C)c(CN3CCN(C)CC3)nc2cc1Cl)c1ccc(C(=O)NCc2cccnc2)cc1
stdout: 1.0

stdin: Hi, do you know how CC1=C2C(O)C(=O)OC(c3ccoc3)C2(C)CCC1O (stereo unspecified) came out in this test?
stdout: 0.0

stdin: Query: recorded result category for C=C1CCC2C(C)(C(=O)O)CCCC2(C)C1CC/C(=C\CO)CO (stereo unspecified) in this test
stdout: 0.0

stdin: I would be grateful if you could indicate the recorded call for CO[C@H]1C[C@@H]2CC[C@@H](C)[C@@](O)(O2)C(=O)C(=O)N2CCCC[C@H]2C(=O)O[C@H]([C@H](C)C[C@H]2CC[C@@H](OP(C)(C)=O)[C@H](OC)C2)CC(=O)[C@H](C)/C=C(\C)[C@@H](O)[C@@H](OC)C(=O)[C@H](C)C[C@H](C)/C=C/C=C/C=C/1C .
stdout: 0.0
